Values from ChEMBL document CHEMBL4680308

IC50 values by entry
method.notes: Desensitization of NAADP receptor in sea urchin egg homogenate assessed as ability to induce time dependent sub-threshold desensitization of calcium release pretreated for 7 mins followed by 1 uM NAADP added by measuring inhibition of calcium release by fluorometric assay
Format: tissue-based, Strongylocentrotus purpuratus

[
  {
    "molecular.string": "C#Cc1nc2c(N)ncnc2n1[C@@H]1O[C@H](COP(=O)(O)OP(=O)(O)OC[C@H]2O[C@@H]([n+]3cc(N=[N+]=[N-])cc(C(=O)[O-])c3)[C@H](O)[C@@H]2O)[C@@H](O)[C@H]1OP(=O)(O)O",
    "IC50": "99 nM"
  },
  {
    "molecular.string": "Nc1ncnc2c1ncn2[C@@H]1O[C@H](COP(=O)(O)OP(=O)(O)OC[C@H]2O[C@@H]([n+]3cccc(C(=O)[O-])c3)[C@H](O)[C@@H]2O)[C@@H](O)[C@H]1OP(=O)(O)O",
    "IC50": "0.14 nM"
  },
  {
    "molecular.string": "C#Cc1nc2c(N)ncnc2n1[C@@H]1O[C@H](COP(=O)(O)OP(=O)(O)OC[C@H]2O[C@@H]([n+]3cccc(C(=O)[O-])c3)[C@H](O)[C@@H]2O)[C@@H](O)[C@H]1OP(=O)(O)O",
    "IC50": "12.1 nM"
  }
]
